system: P. aeruginosa (ATCC 27853); format: cell-based, Pseudomonas aeruginosa; conditions: P. aeruginosa ATCC 27853; MHB-II, inoculum 5 × 10^5 CFU/mL, 37 °C, 18–24 h, triplicate
Non-standard residues stand in square brackets, D forms with d. Residues, ends and D or L forms follow the SMILES beside them. *: point of attachment. Myristoyl = CCCCCCCCCCCCCC(=O)*
reported_endpoint: MIC PA

compound | assayed_target | reported_endpoint | result
CC[C@@H](C)[C@@H](NC(=O)[C@@H](CCCCN)NC(=O)[C@@H](CCCCN)NC(=O)[C@@H](Cc1ccccc1)NC(=O)[C@@H](CC(C)C)NC(=O)[C@@H](CCCCN)NC(=O)[C@H](N)CCCCN)C(=O)N[C@H](CC(C)C)C(=O)N1CCCC[C@H](C(N)=O)NC(=O)[C@@H](Cc2ccc(O)cc2)NC(=O)[C@@H](CCCNC(=N)N)NC(=O)C1 | P. aeruginosa (ATCC 27853) | MIC PA | > 64 mg/L
CCCCCCCCCCCCCC(=O)N[C@H](CCCCN)C(=O)N[C@H](CCCCN)C(=O)N[C@H](CC(C)C)C(=O)N[C@H](Cc1ccccc1)C(=O)N[C@H](CCCCN)C(=O)N[C@H](CCCCN)C(=O)N[C@@H](C(=O)N[C@H](CC(C)C)C(=O)N[C@H](CCCNC(=N)N)C(=O)N[C@H](Cc1ccc(O)cc1)C(=O)N[C@H](CC(C)C)C(N)=O)[C@H](C)CC [compound 6] (Myristoyl-[dK][dK][dL][dF][dK][dK][dI][dL][dR][dY][dL]-NH2) | P. aeruginosa (ATCC 27853) | MIC PA | > 64 mg/L
CC[C@@H](C)[C@H]1NC(=O)CN(C(=O)[C@@H](CCCCN)NC(=O)[C@@H](CCCCN)NC(=O)[C@@H](Cc2ccccc2)NC(=O)[C@@H](CC(C)C)NC(=O)[C@@H](CCCCN)NC(=O)[C@H](N)CCCCN)CCCC[C@H](C(N)=O)NC(=O)[C@@H](Cc2ccc(O)cc2)NC(=O)[C@@H](CCCNC(=N)N)NC(=O)[C@@H](CC(C)C)NC1=O | P. aeruginosa (ATCC 27853) | MIC PA | > 64 mg/L
